Compiled notes: published IC50 values involving Tyrosine-protein kinase JAK3 (Homo sapiens).

QUERY: Could you share what IC50 was measured for Cc1ccc(NC(=O)/C=C/CN(C)C)cc1Nc1cc(Nc2ccc(F)c(Cl)c2)ncn1 , tested on Tyrosine-protein kinase JAK3 (Homo sapiens)?
RESULT: 1000 to 10000 nM

QUERY: Could you share what IC50 was measured for Cn1cc(-c2cc3nccn3c(-c3cnn(C4(CCF)CN(S(=O)(=O)NC5CC5)C4)c3)n2)cn1 , tested on Tyrosine-protein kinase JAK3 (Homo sapiens)?
RESULT: > 1000 nM

QUERY: Could you share what IC50 was measured for CN(C)C(=O)CNc1nc(-n2cnc3ccc(F)cc32)nc2c1[nH]c(=O)n2C1CCOCC1 , tested on Tyrosine-protein kinase JAK3 (Homo sapiens)?
RESULT: < 100 nM

QUERY: Could you share what IC50 was measured for Cc1cc(NC(=O)c2cccc(Nc3ccnc4[nH]nc(N[C@@H]5CCCN(C(=O)N6CCOCC6)C5)c34)c2)ccc1C(C)C , tested on Tyrosine-protein kinase JAK3 (Homo sapiens)?
RESULT: > 10000 nM

QUERY: Could you share what IC50 was measured for C=CC(=O)Nc1ccc(C)c(Nc2nccc(-c3cccnc3)n2)c1 , tested on Tyrosine-protein kinase JAK3 (Homo sapiens)?
RESULT: 10 to 100 nM

QUERY: Could you share what IC50 was measured for C=CC(=O)N1CCC[C@H]1Cn1nc(-c2ccc(Oc3cccc(C)c3)cc2)c2cncnc21 , tested on Tyrosine-protein kinase JAK3 (Homo sapiens)?
RESULT: > 500 nM

QUERY: Could you share what IC50 was measured for C=CC(=O)N1CCc2ccc(-n3c(=O)ccc4cnc5ccc(-c6ccc(N)nc6)cc5c43)cc21 , tested on Tyrosine-protein kinase JAK3 (Homo sapiens)?
RESULT: 5640 nM

QUERY: Could you share what IC50 was measured for O=C(NCC(F)(F)F)C1CCCN(N(c2ncnc3[nH]ccc23)C2CC2)C1 (centres unmarked) , tested on Tyrosine-protein kinase JAK3 (Homo sapiens)?
RESULT: 100 to 1000 nM

QUERY: Could you share what IC50 was measured for CC(C)(O)c1nc2cc(Nc3ncc(Cl)c(NC4CCN(c5ccc(C#N)nn5)CC4)n3)ccn2n1 , tested on Tyrosine-protein kinase JAK3 (Homo sapiens)?
RESULT: 291 nM

QUERY: Could you share what IC50 was measured for CCC(=O)c1cnc(Nc2ccc(CN3CC[C@H](F)C3)cn2)cc1Nc1cccc(-c2ncn(C)n2)c1OC , tested on Tyrosine-protein kinase JAK3 (Homo sapiens)?
RESULT: ≥ 500 nM

QUERY: Could you share what IC50 was measured for NC(=O)c1coc(-c2cnc3[nH]ccc3c2N[C@H]2CC[C@@H](O)C2)n1 , tested on Tyrosine-protein kinase JAK3 (Homo sapiens)?
RESULT: ≤ 10 nM

QUERY: Could you share what IC50 was measured for N#CCC(=O)N1CCC[C@@H](Nc2c(-c3ccn(CCO)n3)cnc3[nH]ccc23)C1 , tested on Tyrosine-protein kinase JAK3 (Homo sapiens)?
RESULT: ≤ 10 nM

QUERY: Could you share what IC50 was measured for C=CC(=O)N1CCC[C@@H](Nc2n[nH]c3nccc(Oc4ccc(Oc5ccccc5)cc4)c23)C1 , tested on Tyrosine-protein kinase JAK3 (Homo sapiens)?
RESULT: 100 to 1000 nM

QUERY: Could you share what IC50 was measured for C=CC(=O)Nc1cccc(Oc2nc(Nc3ccccc3)ncc2C)c1 , tested on Tyrosine-protein kinase JAK3 (Homo sapiens)?
RESULT: < 10 nM

QUERY: Could you share what IC50 was measured for C[C@H](O)C[C@@H](C1CC1)n1cc(-c2nc(-c3cnn(C)c3)cc3nccn23)cn1 , tested on Tyrosine-protein kinase JAK3 (Homo sapiens)?
RESULT: > 1000 nM

QUERY: Could you share what IC50 was measured for CC1CCC2CN1N(c1ncnc3[nH]ccc13)C2=O (centres unmarked) , tested on Tyrosine-protein kinase JAK3 (Homo sapiens)?
RESULT: > 1000 nM

QUERY: Could you share what IC50 was measured for CN(C)C/C=C/C(=O)N[C@H]1CC[C@H](n2nc(-c3ccc(Oc4ccccc4)cc3)c3c(N)ncnc32)CC1 , tested on Tyrosine-protein kinase JAK3 (Homo sapiens)?
RESULT: > 10000 nM

QUERY: Could you share what IC50 was measured for CS(=O)(=O)N(CC#N)c1ccc(-c2ccnc(Nc3ccc(N4CCOCC4)cc3)n2)cc1 , tested on Tyrosine-protein kinase JAK3 (Homo sapiens)?
RESULT: < 500 nM

QUERY: Could you share what IC50 was measured for [2H]C([2H])([2H])N1CC[C@@H](Oc2cnc(Nc3cc(Nc4cccc(-c5ncn(C)n5)c4OC)c(C(=O)CC)cn3)cn2)C1 , tested on Tyrosine-protein kinase JAK3 (Homo sapiens)?
RESULT: ≥ 500 nM

QUERY: Could you share what IC50 was measured for NC(=O)c1cnc2[nH]ccc2c1NN1CCC(C(=O)NCC(F)(F)F)C1 (centres unmarked) , tested on Tyrosine-protein kinase JAK3 (Homo sapiens)?
RESULT: 7.85 nM

QUERY: Could you share what IC50 was measured for NC(=O)c1cnc(Nc2ccc3c(c2)NCC(O)CO3)nc1NC1CC1 (centres unmarked) , tested on Tyrosine-protein kinase JAK3 (Homo sapiens)?
RESULT: < 10 nM

QUERY: Could you share what IC50 was measured for CCC[C@@H](C)n1cc(-c2nc(-c3cnn(C[C@H](O)CO)c3)cn3nccc23)cn1 , tested on Tyrosine-protein kinase JAK3 (Homo sapiens)?
RESULT: 1000 to 10000 nM

QUERY: Could you share what IC50 was measured for CCCCc1nc(-n2cnc3ccc(F)cc32)nc2c1[nH]c(=O)n2[C@@H]1CCOc2c(F)cccc21 , tested on Tyrosine-protein kinase JAK3 (Homo sapiens)?
RESULT: > 1000 nM

QUERY: Could you share what IC50 was measured for CCC(CC)n1cc(-c2nc(-c3cnn(C4CN(C(=O)CN5CCCC5)C4)c3)cn3nccc23)cn1 , tested on Tyrosine-protein kinase JAK3 (Homo sapiens)?
RESULT: 1000 to 10000 nM

QUERY: Could you share what IC50 was measured for C=CC(=O)Nc1cccc(Oc2c(Cl)cnc3[nH]c(-c4ccncc4)nc23)c1 , tested on Tyrosine-protein kinase JAK3 (Homo sapiens)?
RESULT: ≤ 50 nM

QUERY: Could you share what IC50 was measured for C=CC(=O)N1CC(CNc2nc(Nc3cc(C)[nH]n3)nc3ccsc23)C1 , tested on Tyrosine-protein kinase JAK3 (Homo sapiens)?
RESULT: 10 to 100 nM

QUERY: Could you share what IC50 was measured for Cn1cc(-c2cc3nccn3c(-c3cnn(C(C4CC4)C4CC4)c3)n2)cn1 , tested on Tyrosine-protein kinase JAK3 (Homo sapiens)?
RESULT: 100 to 1000 nM

QUERY: Could you share what IC50 was measured for C=CC(=O)Nc1cccc(Oc2nc(Nc3ccc(CN4CCC(O)CC4)cc3)nc3ccsc23)c1 , tested on Tyrosine-protein kinase JAK3 (Homo sapiens)?
RESULT: ≤ 50 nM

QUERY: Could you share what IC50 was measured for CCC(Cn1ccc2cnc(Nc3cnn(CC(=O)OCC(O)CO)c3)nc21)C(C)C (centres unmarked) , tested on Tyrosine-protein kinase JAK3 (Homo sapiens)?
RESULT: < 100 nM

QUERY: Could you share what IC50 was measured for CCC(=O)c1cnc(Nc2ccc(CN3CC4(CCOC4)C3)cn2)cc1Nc1cccc(-c2ncn(C)n2)c1OC , tested on Tyrosine-protein kinase JAK3 (Homo sapiens)?
RESULT: ≥ 500 nM

QUERY: Could you share what IC50 was measured for CN(c1ncnc2[nH]ccc12)C1CCC2(CC1)CCN(C(=O)CC#N)CC2 , tested on Tyrosine-protein kinase JAK3 (Homo sapiens)?
RESULT: 1000 to 10000 nM

QUERY: Could you share what IC50 was measured for CCC(=O)c1cnc(Nc2cnc(CNC)cn2)cc1Nc1cccc(-c2ncn(C)n2)c1OC , tested on Tyrosine-protein kinase JAK3 (Homo sapiens)?
RESULT: ≥ 500 nM
